The entries below are paired with their reported activity change (Venus).
# Experimental details: blocks a specific stage of Vaccinia orthopoxvirus infection, primary screen, cell-based, single point (AID 1053133)
# Experimental setup: Vaccinia-infected cells, mCherry/Venus stage reporter fluorescence, stronger effect = lower value, concentration not given here; measured here: Venus reporter, other viral stage
In all, about 89,000 compounds went through this assay and about 10 (0.01%) were called active. Roughly 10% stayed inconclusive and do not appear here. Only a sample is shown.
Measurement label: activity change (Venus) (%)

smiles_representation=CS(=O)(=O)Nc1ccc2c(c1)[C@H]1C[C@@H](CC(=O)N3CCOCC3)O[C@@H](CO)[C@H]1O2 measurement_label="activity change (Venus)" recorded_value=11.4
smiles_representation=O=C(C[C@H]1CC[C@H]2[C@@H](COC[C@@H](O)CN2Cc2ccccc2F)O1)NCc1ccccc1F measurement_label="activity change (Venus)" recorded_value=2.5
smiles_representation=O=C(CC1CC1)Nc1ccc2c(c1)[C@@H]1C[C@@H](CC(=O)NC3CCCCC3)O[C@@H](CO)[C@@H]1O2 measurement_label="activity change (Venus)" recorded_value=-4.69
smiles_representation=O=C(O)C[C@H]1C=C[C@@H](NC(=O)Nc2cc(F)ccc2F)[C@@H](CO)O1 measurement_label="activity change (Venus)" recorded_value=9.94
smiles_representation=C=CCOC(=O)C1=C[C@@H](c2ccccc2)C[C@@H](OCc2ccc(CO)cc2)O1 measurement_label="activity change (Venus)" recorded_value=-3.63
smiles_representation=CN(C)CCCNC(=O)C[C@H]1CC[C@H]2[C@@H](COC[C@H](O)CN2CC2CCCCC2)O1 measurement_label="activity change (Venus)" recorded_value=5.87
smiles_representation=O=C(c1ccncc1)N1C[C@H]2[C@@H](c3ccccc31)[C@H](CO)N2C(=O)Nc1ccc(F)cc1 measurement_label="activity change (Venus)" recorded_value=5.09
smiles_representation=CC(C)NC(=O)N1Cc2cc(C(=O)NCC(F)(F)F)nc(-c3cccc(-c4cc5ccccc5o4)c3)c2[C@@H]1CCO measurement_label="activity change (Venus)" recorded_value=-13.3

This collection of values is drawn from PubChem BioAssay AID1053133.
